test-target: Rat Liver DHFR (Rattus norvegicus)
Construct: from tissue; host or cells: rat liver
Sequence (Q920D2 whole entry): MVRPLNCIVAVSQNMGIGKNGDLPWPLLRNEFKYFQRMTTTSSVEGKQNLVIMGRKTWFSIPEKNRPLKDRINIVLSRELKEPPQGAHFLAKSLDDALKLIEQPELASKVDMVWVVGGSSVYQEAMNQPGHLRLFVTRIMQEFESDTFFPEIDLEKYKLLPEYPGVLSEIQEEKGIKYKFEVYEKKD
measurement-protocol: inhibition of DHFR activity
Assay type: biochemical
experimental-context: rat liver DHFR enzyme activity; read-out: IC50(μM) Rat Liver DHFR (P95 limits)
assay-metric: IC50

Below, each entry is followed by its recorded IC50 result.
Nc1cc(-c2cccc3ccccc23)nc(N)n1 = 100 µM
Nc1cc(-c2ccccc2Cl)nc(N)n1 = > 100 µM
Nc1cc(-c2ccc(Cl)cc2Cl)nc(N)n1 = < 100 µM
Cc1c(N)nc(N)nc1-c1ccc(Cl)cc1 = > 55 µM

Now for another entry.
Query: // lookup IC50 for "Nc1cc(-c2cccc(Cl)c2Cl)nc(N)n1"
Reply: < 100 µM
